Experiment: RP, Thermo Scientific Acclaim RSLC 120 C18, 100 × 2.1 mm, 2.2 µm, 30 °C, 0.2 mL/min, estimated dead time 1.1 min; A: 90% water + 10% methanol + 0.01% formic acid + 5 mM ammonium formate, pH 3.61; B: methanol + 0.01% formic acid + 5 mM ammonium formate, pH 3.61; gradient (min/%B) 0/1 1/1 2/39 13/99.9 15/99.9 15.1/1 20.1/1
Settings: stereoisomer not certain
reportedProperty: LC retention time (min)
Provide the reading as a plain figure in min.

Would you please look over these solved cases?
>  <molecule>
CNC(=O)Oc1cc(C)c(S(C)=O)c(C)c1 (stereo not drawn) [Methiocarb-sulfoxide]

>  <LC retention time / min>
4.86

$$$$
>  <molecule>
Cc1cccc(C)c1N(Cn1cccn1)C(=O)CS(=O)CC(=O)O (stereo not drawn)

>  <LC retention time / min>
4.94

$$$$

Proceed to the following item.
Bench note: what LC retention time did CN(C)C(=O)Nc1ccc(Cl)cc1 show?
6.9

----------
Experiment: RP, Thermo Scientific Acclaim RSLC 120 C18, 100 × 2.1 mm, 2.2 µm, 30 °C, 0.2 mL/min, estimated dead time 1.1 min; A: water + 0.1% formic acid, pH 2.6; B: methanol + 0.1% formic acid, pH 2.6; gradient (min/%B) 0/10 4/50 17/95 25/95 25.1/10 30/10
Details: stereoisomer not certain
reportedProperty: LC retention time (min)
API: value field is a number in min; no unit string.

>  <molecule>
CCN(C)C(=O)Oc1cccc(C(C)N(C)C)c1 (stereo not given)

>  <reportedProperty>
LC retention time

>  <u>
min

>  <reportedMeasurement>
4.86

$$$$
>  <molecule>
COc1cccc(C2(O)CCCCC2CN(C)C)c1 (stereo not given)

>  <reportedProperty>
LC retention time

>  <u>
min

>  <reportedMeasurement>
4.86

$$$$
>  <molecule>
CC(N)C12CC3CC(CC(C3)C1)C2 (stereo not given)

>  <reportedProperty>
LC retention time

>  <u>
min

>  <reportedMeasurement>
6.34

$$$$
>  <molecule>
C1=CCC(c2cccnc2)NC1 (stereo not given)

>  <reportedProperty>
LC retention time

>  <u>
min

>  <reportedMeasurement>
3.66

$$$$
>  <molecule>
CCN(CC)CC(=O)Nc1c(C)cccc1C

>  <reportedProperty>
LC retention time

>  <u>
min

>  <reportedMeasurement>
4.46

$$$$
>  <molecule>
CCOc1ccc(NC(C)=O)cc1

>  <reportedProperty>
LC retention time

>  <u>
min

>  <reportedMeasurement>
6.82

$$$$
>  <molecule>
COP(N)(=O)SC (stereo not given)

>  <reportedProperty>
LC retention time

>  <u>
min

>  <reportedMeasurement>
2.61

$$$$
>  <molecule>
O=C(O)c1cn(C2CC2)c2cc(N3CCNCC3)c(F)cc2c1=O

>  <reportedProperty>
LC retention time

>  <u>
min

>  <reportedMeasurement>
4.46

$$$$

Return reported LC retention time; argument: CC(C)NCC(O)COc1cccc2[nH]ccc12 (stereo not given)
3.69

Quick one: LC retention time of COP(=O)(OC)OC=C(Cl)Cl ?
8.02

Given the entry CN1C(=O)CCC1c1cccnc1 (stereo not given) , report its measured LC retention time.
1.71

# lookup: LC retention time of COP(=O)(OC)C(O)C(Cl)(Cl)Cl (stereo not given)
5.86

May I ask what LC retention time has been recorded for COC(=O)c1ccccc1C(=O)OC [Phthalate-Dimethyl] ?
7.52

Query: LC retention time; subject: CC(=O)Nc1ccc(O)cc1
3.52

Reported LC retention time, molecule CCN1CCN(C(=O)NC(C(=O)NC2C(=O)N3C(C(=O)O)=C(CSc4nnnn4C)CSC23)c2ccc(O)cc2)C(=O)C1=O (stereo not given) : ____
5.37

Which LC retention time is reported for this molecule? Nc1nc(N)nc(NC2CC2)n1
2.06

----------
Test: RP, Thermo Scientific Acclaim RSLC 120 C18, 100 × 2.1 mm, 2.2 µm, 30 °C, 0.2 mL/min, estimated dead time 1.1 min; A: 90% water + 10% methanol + 0.01% formic acid + 5 mM ammonium formate, pH 3.61; B: methanol + 0.01% formic acid + 5 mM ammonium formate, pH 3.61; gradient (min/%B) 0/1 1/1 2/39 13/99.9 15/99.9 15.1/1 20.1/1
Conditions: stereoisomer not certain
reportedProperty: LC retention time (min)
Output spec: scalar in min, unitless text.

Take a look at these entries with their results.
>  <molecule>
CCCc1nc2c(C)cc(-c3nc4ccccc4n3C)cc2n1Cc1ccc(-c2ccccc2C(=O)O)cc1 [Telmisartan]

>  <reportedProperty>
LC retention time

>  <u>
min

>  <reportedMeasurement>
10.3

$$$$
>  <molecule>
CN(C)C(=O)SCCCCOc1ccccc1 [Fenothiocarb]

>  <reportedProperty>
LC retention time

>  <u>
min

>  <reportedMeasurement>
10.7

$$$$
>  <molecule>
CC(CN1c2ccccc2Sc2ccccc21)N(C)C (stereo unspecified) [Promethazine]

>  <reportedProperty>
LC retention time

>  <u>
min

>  <reportedMeasurement>
7.53

$$$$
>  <molecule>
CCC1(c2ccccc2)C(=O)NCNC1=O [Primidone]

>  <reportedProperty>
LC retention time

>  <u>
min

>  <reportedMeasurement>
5.29

$$$$
>  <molecule>
CC(C)C1(C)N=C(c2nc3ccccc3cc2C(=O)O)NC1=O (stereo unspecified) [Imazaquin]

>  <reportedProperty>
LC retention time

>  <u>
min

>  <reportedMeasurement>
6.1

$$$$

Request the reported LC retention time associated with CN(C)CCCC1(c2ccc(F)cc2)OCc2cc(C#N)ccc21 (stereo unspecified) [Citalopram]
6.59

Item O=c1[nH]c2c(c(=O)n1C1CCCCC1)CCC2 [Lenacil] has what recorded LC retention time?
8.27

----------
Assay: RP, Thermo Scientific Acclaim RSLC 120 C18, 100 × 2.1 mm, 2.2 µm, 30 °C, 0.2 mL/min, estimated dead time 1.1 min; A: 90% water + 10% methanol + 0.01% formic acid + 5 mM ammonium formate, pH 3.61; B: methanol + 0.01% formic acid + 5 mM ammonium formate, pH 3.61; gradient (min/%B) 0/1 1/1 2/39 13/99.9 15/99.9 15.1/1 20.1/1
Details: stereoisomer not certain
We label by threshold. Values of LC retention time strictly beneath 5 min are Fulfilled. Values of 5 min and up are Not fulfilled.

Is the reported LC retention time for CCC(C)N(C(=O)SCc1ccccc1)C(C)CC (stereo not given) strictly below 5 min?
Not fulfilled

Determine if CC(O)C1C(=O)N2C(C(=O)O)=C(SC3CNC(C(=O)N(C)C)C3)C(C)C12 (stereo not given) shows LC retention time strictly lower than 5 min.
Not fulfilled

Determine if CC(=O)Nc1ccc(S(=O)(=O)Nc2nc(C)cc(C)n2)cc1 shows LC retention time strictly lower than 5 min.
Fulfilled

Take the compound NC(=O)c1c(Cl)c(Cl)cc(C(=O)O)c1Cl and say whether its LC retention time is less than 5 min.
Fulfilled

I wonder whether O=C(Nc1cccc2ccccc12)c1nn(CCCCCF)c2ccccc12 has LC retention time below 5 min. Can you tell?
Not fulfilled

----------
Assay: RP, Thermo Scientific Acclaim RSLC 120 C18, 100 × 2.1 mm, 2.2 µm, 30 °C, 0.2 mL/min, estimated dead time 1.1 min; A: 90% water + 10% methanol + 0.01% formic acid + 5 mM ammonium formate, pH 3.61; B: methanol + 0.01% formic acid + 5 mM ammonium formate, pH 3.61; gradient (min/%B) 0/1 1/1 2/39 13/99.9 15/99.9 15.1/1 20.1/1
Conditions: stereoisomer not certain
reportedProperty: LC retention time (min)
Express it in min; write the number only.

Below: 5 compounds and their reported LC retention time.
>  <compound>
Cc1cccc2sc3nncn3c12

>  <reportedProperty>
LC retention time

>  <u>
min

>  <reportedMeasurement>
5.93

$$$$
>  <compound>
CC(C)c1nc(N(C)S(C)(=O)=O)nc(-c2ccc(F)cc2)c1C=CC(O)CC(O)CC(=O)O (stereo unspecified)

>  <reportedProperty>
LC retention time

>  <u>
min

>  <reportedMeasurement>
8.2

$$$$
>  <compound>
CCOP(=S)(OCC)SCCS(=O)(=O)CC

>  <reportedProperty>
LC retention time

>  <u>
min

>  <reportedMeasurement>
8.02

$$$$
>  <compound>
CN1CCC(N(Cc2ccccc2)c2ccccc2)CC1

>  <reportedProperty>
LC retention time

>  <u>
min

>  <reportedMeasurement>
7.77

$$$$
>  <compound>
CC#CCn1c(N2CCCC(N)C2)nc2c1c(=O)n(Cc1nc(C)c3ccccc3n1)c(=O)n2C (stereo unspecified)

>  <reportedProperty>
LC retention time

>  <u>
min

>  <reportedMeasurement>
6.01

$$$$

Would you kindly look at the next entry?
LC retention time for CCc1nc(N)nc(N)c1-c1ccc(Cl)cc1 ?
5.92

----------
# Lookup of reported LC retention time keyed by entry
Assay: RP, Thermo Scientific Acclaim RSLC 120 C18, 100 × 2.1 mm, 2.2 µm, 30 °C, 0.2 mL/min, estimated dead time 1.1 min; A: 90% water + 10% methanol + 0.01% formic acid + 5 mM ammonium formate, pH 3.61; B: methanol + 0.01% formic acid + 5 mM ammonium formate, pH 3.61; gradient (min/%B) 0/1 1/1 2/39 13/99.9 15/99.9 15.1/1 20.1/1
Conditions: stereoisomer not certain
Record the result as number plus unit.

Worked examples, 3 compounds total:
>  <compound>
CC(=O)C1CCC2C3CCC4=CC(=O)CCC4(C)C3CCC12C (centres undefined) [Progesterone]

>  <LC retention time>
11.2 min

$$$$
>  <compound>
CNCCCC12CCC(c3ccccc31)c1ccccc12 [Maprotiline]

>  <LC retention time>
8.08 min

$$$$
>  <compound>
CNCCC=C1c2ccccc2CCc2ccccc21 [Triptyline-Nor]

>  <LC retention time>
8.51 min

$$$$

May I ask what LC retention time has been recorded for COc1ccc(C(O)(c2cncnc2)C2CC2)cc1 (centres undefined) [Ancymidol] ?
7.15 min
